- target_desc: T1, Biotinylated TEM1-Fc (murine, UniProt Q9HCU0 18-687 (human entry), limits assumed, biotinylated (sites not given))
- T1 construct: Ligand captured on the streptavidin sensor surface in the Biacore analysis; also called rTEM-1-Fc; not shown: Fc portion of a murine gamma heavy chain
- T1 sequence (looked up): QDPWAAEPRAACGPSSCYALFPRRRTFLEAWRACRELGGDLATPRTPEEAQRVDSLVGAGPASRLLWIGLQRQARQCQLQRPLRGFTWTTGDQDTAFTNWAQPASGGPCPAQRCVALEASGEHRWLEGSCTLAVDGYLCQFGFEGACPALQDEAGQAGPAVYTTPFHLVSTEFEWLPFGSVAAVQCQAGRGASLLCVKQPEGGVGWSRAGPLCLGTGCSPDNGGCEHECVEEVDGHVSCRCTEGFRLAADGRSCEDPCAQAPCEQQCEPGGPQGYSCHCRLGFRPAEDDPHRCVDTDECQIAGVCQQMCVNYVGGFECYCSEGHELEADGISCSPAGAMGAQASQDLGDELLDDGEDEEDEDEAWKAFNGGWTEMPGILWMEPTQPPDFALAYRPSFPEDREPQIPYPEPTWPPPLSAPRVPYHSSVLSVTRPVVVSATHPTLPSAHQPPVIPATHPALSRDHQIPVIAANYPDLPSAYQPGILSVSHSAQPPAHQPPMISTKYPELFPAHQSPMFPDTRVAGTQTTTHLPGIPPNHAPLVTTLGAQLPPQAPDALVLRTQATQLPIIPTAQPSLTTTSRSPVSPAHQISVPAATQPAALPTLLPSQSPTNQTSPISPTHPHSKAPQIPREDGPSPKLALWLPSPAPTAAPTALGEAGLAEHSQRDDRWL
- method_description: Biacore SPR, biotinylated TEM1-Fc on streptavidin surface, antibody as analyte, 1:1 model
- Protocol: Biacore analyses were also performed to determine the affinity of selected isolated TEM-1-specific rat antibodies. For these studies streptavidin-coated sensor surfaces were generated by injecting CAP reagent for 5 minutes at a flow rate of 2 μl/min. […] Rat anti-TEM-1 MAbs were injected for 300 seconds at 0.5 nM, 2 nM, 5 nM, 20 nM, and 50 nM concentrations and the dissociations were monitored for 30 minutes at a flow rate of 25 μl/minute. […] The sensorgrams were analyzed using 1:1 binding model.
pKd: −log10 of the molar value.
# if value of pKd reaches 10, tag criterion met; if it stays below, tag criterion not met

## Task Confirm if pKd reported for the binder Antibody 11D1 (antibody, V domains shown, Rat monoclonal antibody from hybridoma, IgG2a/kappa; also called 11D1.G10.F8; ATCC PTA-12541) VH: EVQLVESDGGLVQPGRSLKLSCAASGFSFSDYYMAWVRQAPTKGLEWVATISYDGSGSYYRDSVKGRFTVSRDNAKTTLYLQMDSLRSEDTATYYCARGGGLDYWGQGVMVTVSS VL: DNVLTQAPLAVSVTPGESASISCRSSKSLLSIEGINSLYWYLQKPGKSPQLLLFRMSNLASGVPDRFSGSGSETDFTLKISQVETEDVGVYYCAQFLEFPFTFGSGTKLEIK is 10 or above.
## Result criterion not met

## Task # repeat for Antibody 15F8 (antibody, V domains shown, Rat monoclonal antibody from hybridoma, IgG2a/kappa; also called 15F8.G6.B4; ATCC PTA-12540) VH: EVQLVESGGGLVQPGRSMKLSCSASGFTFRNYYMAWVRQAPTRGLEWVASTGTGGDFTYYRDSVKGRFTISRDTAENTLYLQMDSLRSEDTATYYCARAYGYFDYWGQGVKVTVSS VL: DIVLTQSPTTLSVTPGETVSLSCRASHSVGTNLHWYQQKPNESPRLLIKYVSQSNSGIPSRFSASGSGTDFTLNIKNVEFNDVSSYFCQQTQSWPLTFGAGTKLEIK
## Result criterion met

## Task What would you report for Antibody 7D3 (antibody, V domains shown, Rat monoclonal antibody from hybridoma, IgG2a/kappa; also called 7D3.F5.E8.D8; ATCC PTA-12538) VH: EVQLVESGGGLVQPKGSLKLSCAASGFDFKTYAMSWVRQAPGKGLDWIVTISTKGHNYATLYADSVKERFTISRDDSQSMVYLQMNNLKTEDTALYYCTVAGYNFDYWGQGVMVTVSS VL: DVVLTQTPSILSATIGQSVSISCRSSQSLLDSDGNTYLYWFLQRPGQSPQRLIYLVSNLGSGVPNRFSGSGSGTDFTLKISGVEAGDLGVYYCMQATHAPFTFGSGTKLEIK ?
## Result criterion met

## Task And then Antibody 9A5 (antibody, V domains shown, Rat monoclonal antibody from hybridoma, IgG2a/kappa; also called 9A5.G12.B10.F8.F6; ATCC PTA-12542) VH: EVQLVESGGGLVQPGRSMKLSCAASGFTFRNYYMAWVRQAPTRGLEWVASTGSGGDFTYYRDSVKGRFTISRDTAENTLYLQMDSLRSEDTATYYCARAYGYFDYWGQGVRVTVSS VL: DIVLTQSPTTLSVTPGETVSLSCRASHSVGTNLHWYQQKTNESPRLLIKDASQSMSGIPSRFSASGSGTDFTLNIKNVEFDDVSSYFCQQTQSWPLTFGSGTKLEIK , what is it?
## Result criterion met

## Task Also, Antibody 16D2 (antibody, V domains shown, Rat monoclonal antibody from hybridoma, IgG2a/kappa; also called 16D2.H12.E7.G9; ATCC PTA-12544) VH: EVQLVESGGGLVQPGRSMKLSCSASGFIFRNYYMAWVRQAPTKGLEWVASTGTGGDFTYYRDSVKGRFTISRDTAESTLYLQMDSLKSEDTATYYCARAYGYFDYWGQGVKVTVSS VL: DIVLTQSPTTLSVTPGETVSLSCRASHSVGTNLHWYQQKTNESPRLLIKYVSQSNSGIPSRFSASGSGTDFTLNIKDVEFDDVSSYFCQQTQSWPLTFGSGTKLEIK please.
## Result criterion met

## Task And the next one, Antibody 7H12 (antibody, V domains shown, Rat monoclonal antibody from hybridoma, IgG1/kappa; also called 7H12.H5.E7; ATCC PTA-12545) VH: EVQLVESGGGLVQPGRSMILSCAASGFTFSNFDMAWVRQAPKMGLEWVATITYDGSRTNYRDSVKGRFTISRDSAKNTLYLQMDSLTSEDTATYYCARHGSSYYWFFDFWGPGTMVTVSS VL: ETVMTQSPTSMPTSIGERVTLNCKASQSVGINVDWYQQTPGQSPKLLIYTASNRHTGVPDRFAGSGSGRDFTLTISNVEAEDLVVYYCLQYGSLPFTFGAGTKLELK ?
## Result criterion met
